System: THRa homodimer (NR concentration 90 nM)
Assay: PBM binding z-score (relative to random genomic background probes); higher = stronger binding; sequences stand for … in GC…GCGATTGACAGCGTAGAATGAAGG
Classes are defined on PBM binding z-score with ranges bottom range = under -0.06, center range = from -0.06 up to 0.9, top range = 0.9 and over

residueSequence | experimentalSystem | qualitativeLabel
GCATATAGGTAATACCAGGTGAAAGTCCGATTGT | THRa homodimer (NR concentration 90 nM) | center range
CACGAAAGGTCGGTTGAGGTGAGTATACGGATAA | THRa homodimer (NR concentration 90 nM) | top range
AGAATGAGGTTATACGTAGAGCAGGGAAGAAAGT | THRa homodimer (NR concentration 90 nM) | center range
CGAACTAGGTCAATGACAGGACAGTGAATAGTAA | THRa homodimer (NR concentration 90 nM) | center range

Challenge: Category lookup for the sequence AGGATGAGGTTATTAAGATCAGGGAATTGCGGTC
Response given: top range

Challenge: Entry TGTCGAAGTTCAAAGGTAACGTAAGTATCCACAC belongs to which category?
Response given: bottom range

The origin of these recorded values is the supplement of paper PMC6555819.
